Origin of the recorded values: PubChem BioAssay AID488

Test System: Cathepsin B (Homo sapiens)
Test Method Notes: cathepsin B inhibitors from pooled compounds, primary screen, biochemical, compound mixtures, AMC fluorescence (AID 488);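 note: 0% = enzyme without compound and 100% = no enzyme blank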
Test Parameters: Purified cathepsin B, AMC dipeptide fluorescence, active compounds read high,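 ten-compound pools at 5 µM per compound and 50 µM total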
The whole screen tested about 62,000 compounds, of which about 40 (0.06%) were called active. For the sample, actives were picked, then their nearest neighbours and some compounds at random.
Measured inhibition accompanies every entry in the list below.
Unit % implied. Number only.

>>> meas_value("Cc1nc2ccc(S(=O)(=O)NC(C(=O)N3CCCCCC3)C(C)C)cc2s1 (configuration not stated)")
6.23
>>> meas_value("CCCC(=O)C1=C(N(C)c2ccccc2)CC(C)(C)C(C(=O)OC)C1=O (configuration not stated)")
6.7
>>> meas_value("O=C(NCCN1C(=O)C2C3C=CC(C3)C2C1=O)Nc1ccccn1 (configuration not stated)")
7.59
>>> meas_value("CCCCn1c(CN2CCN(CCO)CC2)nc2ccccc21")
2.92
>>> meas_value("COc1ccc(C(C)=O)cc1COC(=O)Cn1cnc2ccccc2c1=O")
-0.265

Input line: Bench note: what inhibition did CC(C)C(c1nnnn1Cc1ccccc1)N1CCC(C(N)=O)CC1 (configuration not stated) show?
Output line: -1.51

Input line: Bench note: what inhibition did `CCCn1c(SCC(=O)N2CCc3ccccc32)nnc1-c1ccncc1` show?
Output line: 5.11

Input line: Bench note: what inhibition did CCC(C)Sc1nc(C)nc2c1c(=O)n(C)c(=O)n2C (configuration not stated) show?
Output line: 2.91

Input line: Bench note: what inhibition did `COc1ccc(S(=O)(=O)N2CCCCC2)cc1Br` show?
Output line: 2.55

Input line: Bench note: what inhibition did CCC(=O)N1CCc2cc(S(=O)(=O)NC(C(=O)N3CCc4ccccc4C3)C(C)C)ccc21 (configuration not stated) show?
Output line: 15.3

Input line: Bench note: what inhibition did CCC(=O)c1ccc(OCC(O)CN2CCN(c3cccc(C(F)(F)F)c3)CC2)cc1 (configuration not stated) show?
Output line: 2.81

Input line: Bench note: what inhibition did `C=CCn1c(SCc2cc(C(=O)OC)c(C)o2)nnc1-c1ccncc1` show?
Output line: -5.06

Input line: Bench note: what inhibition did `CC(C)C[C@H](NC(=O)[C@@H]1O[C@H]1C(=O)O)C(=O)NCCCCN=C(N)N` show?
Output line: 99.7

Input line: Bench note: what inhibition did CCOC(=O)COc1ccc(Cl)cc1C1NC(=O)NC(C)=C1C(C)=O (configuration not stated) show?
Output line: -5.4

Input line: Bench note: what inhibition did `Cc1ccc(S(=O)(=O)N(C)CC(=O)N2CCc3ccccc32)cc1` show?
Output line: -2.02

Input line: Bench note: what inhibition did `CCN(CC)P(=O)(/C(Cl)=C\Nc1c(C)n(C)n(-c2ccccc2)c1=O)N(CC)CC` show?
Output line: -1.45

Input line: Bench note: what inhibition did CC(c1nnc(SCC(=O)Nc2sccc2C#N)n1-c1ccc(Cl)cc1)N(C)C (configuration not stated) show?
Output line: 5.86

* * *

Test System: Cathepsin B (Homo sapiens) (UniProt P07858)
Test Method Notes: cathepsin B inhibitors from pooled compounds, primary screen, biochemical, compound mixtures, AMC fluorescence (AID 488);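 note: 0% = enzyme without compound and 100% = no enzyme blank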
Test Parameters: Purified cathepsin B, AMC dipeptide fluorescence, active compounds read high,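 ten-compound pools at 5 µM per compound and 50 µM total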
Screen size: about 62,000 compounds; about 40 (0.06%) were called active. The entries come from a sample that favours actives as a whole.
Readout Kind: inhibition (%)
Unit % implied. Number only.

>>> meas_value("Cc1cc(NC(=O)COC(=O)c2ccc(F)c(S(=O)(=O)N3CCOCC3)c2)no1")
5.21

Input line: Bench note: what inhibition did `CCOC(=O)c1cc2occc2n1CC(=O)N1CCN(C(=O)c2ccco2)CC1` show?
Output line: 0.785

Input line: Bench note: what inhibition did `N#Cc1cccc(CSc2nnc(CCCO)n2-c2ccccc2)c1` show?
Output line: 22

Input line: Bench note: what inhibition did `O=C(NC(c1ccccc1)c1ccccc1)N1CCN(CCO)CC1` show?
Output line: 3.62

Input line: Bench note: what inhibition did `COc1ccc(C)c(Cn2c(-c3nonc3N)nc3ccccc32)c1` show?
Output line: 19.5

Input line: Bench note: what inhibition did `CN(C(=O)c1ccccn1)c1nnc(-c2ccccn2)s1` show?
Output line: 4.35
